measured.on: USP24 (UniProt Q9UPU5)
Sequence (Q9UPU5 whole entry, the tested form may be a part): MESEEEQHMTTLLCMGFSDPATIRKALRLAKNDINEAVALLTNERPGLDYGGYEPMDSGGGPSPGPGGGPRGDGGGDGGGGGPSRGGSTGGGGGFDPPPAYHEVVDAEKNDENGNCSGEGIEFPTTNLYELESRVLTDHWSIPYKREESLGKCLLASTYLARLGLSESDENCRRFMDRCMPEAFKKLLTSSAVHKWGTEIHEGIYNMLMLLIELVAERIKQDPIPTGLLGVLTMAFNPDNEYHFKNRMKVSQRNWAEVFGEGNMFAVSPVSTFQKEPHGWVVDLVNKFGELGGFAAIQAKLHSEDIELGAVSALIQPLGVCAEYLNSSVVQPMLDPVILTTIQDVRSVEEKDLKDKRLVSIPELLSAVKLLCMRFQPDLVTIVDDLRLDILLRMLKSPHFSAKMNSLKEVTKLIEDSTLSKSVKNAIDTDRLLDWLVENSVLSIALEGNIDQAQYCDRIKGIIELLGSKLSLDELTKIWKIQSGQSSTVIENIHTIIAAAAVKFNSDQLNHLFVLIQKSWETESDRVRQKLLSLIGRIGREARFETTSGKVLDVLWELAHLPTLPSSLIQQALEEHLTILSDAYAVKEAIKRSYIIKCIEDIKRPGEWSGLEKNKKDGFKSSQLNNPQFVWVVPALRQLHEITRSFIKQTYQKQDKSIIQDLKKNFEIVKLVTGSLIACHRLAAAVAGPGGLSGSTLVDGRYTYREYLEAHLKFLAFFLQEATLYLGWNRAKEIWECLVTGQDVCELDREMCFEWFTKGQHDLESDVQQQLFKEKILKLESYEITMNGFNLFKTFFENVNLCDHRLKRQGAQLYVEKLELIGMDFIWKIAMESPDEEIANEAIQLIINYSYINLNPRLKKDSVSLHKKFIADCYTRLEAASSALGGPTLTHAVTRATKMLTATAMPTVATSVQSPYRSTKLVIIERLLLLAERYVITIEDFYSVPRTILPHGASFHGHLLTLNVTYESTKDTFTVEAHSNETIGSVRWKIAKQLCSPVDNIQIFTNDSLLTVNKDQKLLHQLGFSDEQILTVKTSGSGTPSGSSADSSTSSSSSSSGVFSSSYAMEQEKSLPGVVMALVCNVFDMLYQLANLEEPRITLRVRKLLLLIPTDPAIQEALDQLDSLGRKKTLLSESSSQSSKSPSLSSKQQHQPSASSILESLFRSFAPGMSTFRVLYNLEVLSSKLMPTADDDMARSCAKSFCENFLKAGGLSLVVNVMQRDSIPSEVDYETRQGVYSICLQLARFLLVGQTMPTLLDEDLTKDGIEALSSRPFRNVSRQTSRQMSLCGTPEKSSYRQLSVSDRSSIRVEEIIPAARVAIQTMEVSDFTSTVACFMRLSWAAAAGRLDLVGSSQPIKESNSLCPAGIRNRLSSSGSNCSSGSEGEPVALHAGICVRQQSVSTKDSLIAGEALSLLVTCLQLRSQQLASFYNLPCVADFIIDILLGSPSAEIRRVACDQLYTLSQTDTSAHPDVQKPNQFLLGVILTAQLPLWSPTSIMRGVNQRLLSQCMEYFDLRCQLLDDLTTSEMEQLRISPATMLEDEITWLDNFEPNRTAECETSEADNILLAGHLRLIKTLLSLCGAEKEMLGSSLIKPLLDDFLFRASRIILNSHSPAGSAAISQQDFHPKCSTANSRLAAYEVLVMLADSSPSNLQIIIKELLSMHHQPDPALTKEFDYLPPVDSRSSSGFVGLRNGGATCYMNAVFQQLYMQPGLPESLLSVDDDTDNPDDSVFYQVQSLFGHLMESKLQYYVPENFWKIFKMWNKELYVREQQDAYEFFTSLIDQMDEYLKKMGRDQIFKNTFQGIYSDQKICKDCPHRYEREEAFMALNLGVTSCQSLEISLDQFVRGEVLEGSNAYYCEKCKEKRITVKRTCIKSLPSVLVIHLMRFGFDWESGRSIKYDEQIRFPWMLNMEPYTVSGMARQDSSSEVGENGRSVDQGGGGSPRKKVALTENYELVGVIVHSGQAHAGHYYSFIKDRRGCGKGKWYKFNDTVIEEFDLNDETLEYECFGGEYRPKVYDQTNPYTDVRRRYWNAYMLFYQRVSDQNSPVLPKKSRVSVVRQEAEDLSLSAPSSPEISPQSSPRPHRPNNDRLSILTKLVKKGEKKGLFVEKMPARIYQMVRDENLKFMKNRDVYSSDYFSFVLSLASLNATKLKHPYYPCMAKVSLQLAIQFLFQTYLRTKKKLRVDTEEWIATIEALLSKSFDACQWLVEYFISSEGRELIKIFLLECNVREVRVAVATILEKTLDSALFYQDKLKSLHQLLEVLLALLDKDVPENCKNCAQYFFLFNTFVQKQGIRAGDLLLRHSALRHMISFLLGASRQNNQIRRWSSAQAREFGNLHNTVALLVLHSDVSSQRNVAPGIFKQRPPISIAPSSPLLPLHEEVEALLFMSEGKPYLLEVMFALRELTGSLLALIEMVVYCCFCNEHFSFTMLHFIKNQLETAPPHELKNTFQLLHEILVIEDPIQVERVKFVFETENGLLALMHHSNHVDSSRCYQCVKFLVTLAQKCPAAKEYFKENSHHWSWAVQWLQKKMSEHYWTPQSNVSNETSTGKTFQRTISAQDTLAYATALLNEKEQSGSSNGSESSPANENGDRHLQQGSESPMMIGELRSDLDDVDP
method.description: log2 ratio of Biotin-Ahx-Ub-VS probe labelling (fragment/DMSO); higher = less target engagement (more negative = stronger competition), active = hit call of the paper (q ≤ 0.05, log2 ratio ≤ -1)
test.context: compound concentration: 200 uM; treatment time: 3 h
Record condition met whenever log2 ratio of Biotin-Ahx-Ub-VS probe labelling is at -0.2 or higher; record condition not met when lower.

1) CC(NC(=O)CCl)c1cnn(C2CC2)c1 (centres undefined): condition not met
2) Cc1cc(Cl)ccc1NC(=O)CCl: condition not met
3) O=C(CCl)NCCc1ccc2c(c1)OCCO2: condition not met
4) CS(=O)(=O)c1ccc(CNC(=O)CCl)cc1: condition met
5) NC(=O)C1CCCN(C(=O)CCl)C1 (centres undefined): condition not met
6) O=C(CCl)N1CCc2[nH]c3ccccc3c2C1: condition not met
7) CS(=O)(=O)N1CCCN(C(=O)CCl)CC1: condition met
8) CC(NC(=O)CCl)c1cccc2ccccc12 (centres undefined): condition not met
9) Cl.O=C(CCl)NCc1ccnc(Oc2ccccc2F)c1: condition not met
10) CNC(=O)Cn1cc(NC(=O)CCl)cn1: condition met
11) CC(O)CC1CCN(C(=O)CCl)CC1 (centres undefined): condition not met
12) O=C(CCl)NCCc1cccc2ccccc12: condition met
13) O=C(CCl)NCc1ccc(Cl)cc1: condition met
14) CN1C(=O)c2ccc(NC(=O)CCl)cc2C1=O: condition not met

----------
measured.on: USP36 (UniProt Q9P275)
Sequence (Q9P275 whole entry, the tested form may be a part): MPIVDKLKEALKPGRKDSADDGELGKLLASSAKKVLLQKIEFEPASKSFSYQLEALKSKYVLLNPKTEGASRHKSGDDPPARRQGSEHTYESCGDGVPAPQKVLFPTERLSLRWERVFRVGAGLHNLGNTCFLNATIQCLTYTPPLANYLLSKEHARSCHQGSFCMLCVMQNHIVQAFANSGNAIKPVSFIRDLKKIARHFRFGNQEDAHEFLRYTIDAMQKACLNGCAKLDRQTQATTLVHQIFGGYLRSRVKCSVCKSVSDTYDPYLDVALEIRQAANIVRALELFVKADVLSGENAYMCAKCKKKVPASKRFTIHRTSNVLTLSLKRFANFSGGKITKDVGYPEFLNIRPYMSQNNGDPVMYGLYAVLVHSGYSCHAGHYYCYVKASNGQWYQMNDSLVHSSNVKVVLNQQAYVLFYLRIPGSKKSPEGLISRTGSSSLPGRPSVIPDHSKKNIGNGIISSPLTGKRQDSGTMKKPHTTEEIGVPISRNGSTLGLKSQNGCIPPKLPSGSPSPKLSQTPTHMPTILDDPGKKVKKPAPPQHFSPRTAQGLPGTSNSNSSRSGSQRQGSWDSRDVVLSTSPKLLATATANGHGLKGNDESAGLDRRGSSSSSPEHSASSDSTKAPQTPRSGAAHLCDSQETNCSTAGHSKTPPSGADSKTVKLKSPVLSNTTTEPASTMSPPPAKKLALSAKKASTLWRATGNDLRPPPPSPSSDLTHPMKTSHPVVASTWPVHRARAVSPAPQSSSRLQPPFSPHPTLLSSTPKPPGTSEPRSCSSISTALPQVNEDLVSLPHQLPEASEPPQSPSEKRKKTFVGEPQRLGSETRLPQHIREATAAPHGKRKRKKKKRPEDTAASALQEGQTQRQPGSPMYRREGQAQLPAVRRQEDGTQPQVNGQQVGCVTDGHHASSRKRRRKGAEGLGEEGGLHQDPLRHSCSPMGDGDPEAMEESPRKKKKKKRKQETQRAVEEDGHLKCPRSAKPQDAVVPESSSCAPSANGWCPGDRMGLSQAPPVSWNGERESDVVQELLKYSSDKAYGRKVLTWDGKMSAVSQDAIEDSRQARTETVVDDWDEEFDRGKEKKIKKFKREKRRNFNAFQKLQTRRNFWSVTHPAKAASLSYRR
method.description: log2 ratio of Biotin-Ahx-Ub-VS probe labelling (fragment/DMSO); higher = less target engagement (more negative = stronger competition), active = hit call of the paper (q ≤ 0.05, log2 ratio ≤ -1)
test.context: compound concentration: 200 uM; treatment time: 3 h
# log2 ratio of Biotin-Ahx-Ub-VS probe labelling binned as low (below -0.1), intermediate (-0.1 to below -0.009), high (-0.009 or more)

1. O=C(CCl)Nc1cccc2ncccc12: high
2. Cl.O=C(CCl)N1CCn2ncc(O)c2C1: intermediate
3. CCC1c2ccsc2CCN1C(=O)CCl (configuration not stated): intermediate
4. NS(=O)(=O)c1ccc(Cl)c(NC(=O)CCl)c1: low
5. Cl.O=C(CCl)N1CCC(n2nc3ccccc3n2)CC1: high
6. CCN(C(=O)CCl)C1CCS(=O)(=O)C1 (configuration not stated): low
7. CCc1c[nH]c(CNC(=O)CCl)n1.Cl: low
8. O=C(O)C1Cc2ccccc2CN1C(=O)CCl (configuration not stated): low
9. O=C(CCl)N[C@H]1CC[C@@H](CO)CC1: low
10. Cc1nnc(C(NC(=O)CCl)c2ccccc2)n1C (configuration not stated): high
11. O=C(CCl)N1CCOC(c2cccc(F)c2)C1 (configuration not stated): low
12. Cl.Cn1ncc2c1CCCC2NC(=O)CCl (configuration not stated): low
13. O=C(CCl)N(C1CCCC1)C1CCS(=O)(=O)C1 (configuration not stated): low
14. O=C(CCl)N1CC=C(c2c[nH]c3ccccc23)CC1: high
15. Cc1cccc(N2CCC(NC(=O)CCl)C2=O)c1 (configuration not stated): intermediate
16. NC(=O)C(Cc1ccccc1)NC(=O)CCl (configuration not stated): high
17. Cc1ccn2cc(CNC(=O)CCl)nc2c1.Cl: intermediate
18. CC(=O)Nc1ccc(NC(=O)CCl)cc1: intermediate
19. Cc1cccc(N(CCC#N)C(=O)CCl)c1C: intermediate
20. O=C(CCl)N1CCN(C(=O)Nc2ccccc2)CC1: low
21. CC(NC(=O)CCl)c1cc2n(n1)CCCC2.Cl (configuration not stated): high
22. Cc1ccc(CN(C)C(=O)CCl)o1: high
23. Cl.Cn1nccc1C(NC(=O)CCl)c1ccccc1 (configuration not stated): high
24. Cc1ccc(C(=O)NCCNC(=O)CCl)cc1: high
25. Cc1cccn2cc(CCNC(=O)CCl)nc12.Cl: intermediate
26. Cc1nc(CC2CCN(C(=O)CCl)CC2)no1: low
27. Cc1cc(C2CCCN2C(=O)CCl)nn1C.Cl (configuration not stated): intermediate
28. Cl.Cn1nc2c(c1CNC(=O)CCl)CCCC2: intermediate
29. O=C(CCl)N1CCC(O)(Cc2ccc(F)cc2)C1 (configuration not stated): high
30. Cc1ccc(CC(NC(=O)CCl)c2ccccn2)cc1.Cl (configuration not stated): high
31. COc1ccc(CN(C)C(=O)CCl)cc1: high
32. O=C(CCl)N1CCC(C(O)c2ccc(F)cc2)CC1 (configuration not stated): high
33. CS(=O)(=O)N1CCCN(C(=O)CCl)CC1: low
34. CC(=O)C1CCCCN1C(=O)CCl (configuration not stated): intermediate
35. O=C(CCl)Nc1cc2c(cc1Cl)OCCO2: high
36. CC(NC(=O)CCl)c1cccc2ccccc12 (configuration not stated): intermediate
37. Cl.O=C(CCl)NCCN1CCc2ccccc21: low
38. O=C(CCl)N1CCC2(CCC(O)CC2)CC1: intermediate
39. Cl.Cn1c(CNC(=O)CCl)nc2cccnc21: low
40. COCC[C@@H](NC(=O)CCl)c1ccccc1: low
41. O=C(CCl)N1CCOCCC1c1ccccc1 (configuration not stated): high
42. CC(c1ccccc1)N(C)C(=O)CCl (configuration not stated): low
43. O=C(CCl)NCc1cccc(F)c1: low
44. O=C(CCl)Nc1ccc2c(c1)OC(F)(F)O2: high
45. COc1ccc(C2CCCN2C(=O)CCl)c(OC)c1 (configuration not stated): low
46. O=C(CCl)NC1CCC(C(F)(F)F)CC1 (configuration not stated): intermediate
47. O=C(CCl)Nc1cccc(NC(=O)c2ccccc2)c1: low
48. O=C(CCl)N1CCc2sccc2C1: low
49. COc1ccccc1C(C)NC(=O)CCl (configuration not stated): high
50. O=C(CCl)N1CCCC1c1ccsc1 (configuration not stated): low
51. Cc1nc(CN2CCN(C(=O)CCl)CC2)cs1: intermediate
52. O=C(CCl)N1CCC(C(=O)N2CCCC2)CC1: low
53. CN1c2ccccc2C(NC(=O)CCl)CS1(=O)=O (configuration not stated): low
54. C/C(=C\CNC(=O)CCl)c1cnn(C)c1.Cl: low
55. Cc1cccc(C(CNC(=O)CCl)N2CCOCC2)c1.Cl (configuration not stated): high
56. CC(NC(=O)CCl)c1noc(Cc2ccccc2)n1 (configuration not stated): low

----------
measured.on: UCHL3 (UniProt P15374)
Sequence (P15374 whole entry, the tested form may be a part): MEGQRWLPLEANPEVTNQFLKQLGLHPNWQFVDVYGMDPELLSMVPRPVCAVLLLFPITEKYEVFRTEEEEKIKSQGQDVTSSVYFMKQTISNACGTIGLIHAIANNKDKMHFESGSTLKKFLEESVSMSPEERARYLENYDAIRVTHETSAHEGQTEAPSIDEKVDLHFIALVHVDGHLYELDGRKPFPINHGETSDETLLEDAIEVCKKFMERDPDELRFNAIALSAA
method.description: log2 ratio of Biotin-Ahx-Ub-VS probe labelling (fragment/DMSO); higher = less target engagement (more negative = stronger competition), active = hit call of the paper (q ≤ 0.05, log2 ratio ≤ -1)
test.context: compound concentration: 200 uM; treatment time: 3 h
The following compounds are listed with their measured log2 ratio of Biotin-Ahx-Ub-VS probe labelling values.
measured.quantity: log2 ratio of Biotin-Ahx-Ub-VS probe labelling

1) CC(O)CC1CCN(C(=O)CCl)CC1 (configuration not stated): 0.294
2) C[C@@H](NC(=O)CCl)c1cccc(C#N)c1: 0.359
3) O=C(CCl)N1CCCCC12CCOCC2: -0.176
4) Cl.O=C(CCl)NCCc1ncc(F)cc1F: 0.191
5) Cc1cc(Cl)ccc1NC(=O)CCl: 0.0619
6) CN1c2ccccc2C(NC(=O)CCl)CS1(=O)=O (configuration not stated): 0.316
7) O=C(CCl)NCCc1ccc2c(c1)OCCO2: -0.0656
8) O=C(CCl)Nc1ccc(N2CCCC2=O)cc1: 0.206
9) O=C(CCl)NC1CCC(C(F)(F)F)CC1 (configuration not stated): 0.327
10) O=C(CCl)NC1CCCCNC1=O (configuration not stated): 0.241
11) Cl.O=C(CCl)N[C@H]1C[C@@H](n2cccn2)C1: 0.478
12) CC(NC(=O)CCl)c1cnn(C2CC2)c1 (configuration not stated): 0.329
13) CCN(Cc1ccc(C#N)cc1F)C(=O)CCl: 0.0414
14) Cl.O=C(CCl)NCc1ccnc(Oc2ccccc2F)c1: 0.27
15) Cc1ccc(CN(C)C(=O)CCl)o1: 0.611
16) Cc1ccc(N(CCC#N)C(=O)CCl)cc1C: 0.292
17) N#Cc1ccc(CNC(=O)CCl)cc1: 0.183
18) C[C@H]1CN(C(=O)CCl)CCN1C(=O)c1cnn(C)c1.Cl: 0.376
19) O=C(CCl)NC1CCN(C(=O)C2CCCCC2)CC1: 0.338
20) O=C(CCl)N1CCC(c2nc3ccccc3o2)CC1: 0.054
21) CC(c1ccccc1)N(C)C(=O)CCl (configuration not stated): 0.257
22) Cc1ccccc1OCC(=O)N1CCN(C(=O)CCl)CC1: 0.461
23) O=C(CCl)N1CCc2ccccc2C(O)C1 (configuration not stated): -0.197
24) Cc1c(C#N)c(NC(=O)CCl)n(Cc2ccco2)c1C: 0.496
25) Cc1cc(NC(=O)CCl)n(-c2ccccc2)n1: 0.614
26) CC1CN(c2ccc(NC(=O)CCl)cc2)CC(C)O1 (configuration not stated): 0.00853
27) O=C(CCl)N1CCCCCC1c1ncon1 (configuration not stated): 0.279
28) Cc1cccnc1NC(=O)C1CCN(C(=O)CCl)CC1.Cl: 0.088
29) COc1ccc(-c2csc(NC(=O)CCl)n2)cc1: -0.274
30) Cl.O=C(CCl)NCc1cc2c(nc1O)CCCC2: 0.175
31) CC(NC(=O)CCl)c1noc(Cc2ccccc2)n1 (configuration not stated): -0.00714
32) Cl.O=C(CCl)N1CCCC(c2ncc[nH]2)C1 (configuration not stated): 0.271
33) O=C(CCl)NCc1noc(C2CC2)n1: 0.307
34) COc1ccc(Cl)cc1NC(=O)CCl: -0.0348
35) Cc1ccccc1C1(CNC(=O)CCl)CCOCC1: 0.231
36) O=C(CCl)N1CCC(C(=O)N2CCCCCC2)CC1: 0.241
37) O=C(CCl)NCc1ccc(Cl)cc1: 0.379
38) O=C(CCl)N1CCc2[nH]c3ccccc3c2C1: -0.675
39) Cc1cc(C(=O)NC2CCN(C(=O)CCl)CC2)no1: 0.336
40) O=C(CCl)N1CCCC1c1ccsc1 (configuration not stated): -0.121
41) CC1CCc2onc(CNC(=O)CCl)c2C1 (configuration not stated): 0.123
42) Cc1nc(-c2cccc(NC(=O)CCl)c2)cs1: -0.844
43) O=C(CCl)Nc1nc(-c2cccs2)cs1: 0.426
44) CN(CCc1ncc(Br)cn1)C(=O)CCl.Cl: 0.504
45) CN(C(=O)CCl)c1nc2ccccc2s1: 0.484
46) O=C(CCl)NC1CCS(=O)(=O)c2ccccc21 (configuration not stated): 0.125
47) Cc1ccccc1CN(C)C(=O)CCl: -0.483
48) CCCn1nccc1NC(=O)CCl: 0.0705
49) CCN(C(=O)CCl)C1CCS(=O)(=O)C1 (configuration not stated): 0.365
50) O=C(CCl)Nc1cc2c(cc1Cl)OCCO2: 0.196
51) Cl.Cn1ncc2c1CC(NC(=O)CCl)CC2 (configuration not stated): 0.377
52) O=C(CCl)N1CCC(S(=O)(=O)c2ccc(F)cc2)CC1: 0.498
53) CC(NC(=O)CCl)c1cccc(Cl)c1 (configuration not stated): -0.204
54) Cc1ncsc1CCNC(=O)CCl: 0.292
55) O=C(CCl)N1CCOCCC1c1ccccc1 (configuration not stated): 0.325
56) CS(=O)(=O)c1ccc(CNC(=O)CCl)cc1: 0.301
57) CNC(=O)Cn1cc(NC(=O)CCl)cn1: 0.189

# credit: the supplement of paper PMC11732987
